Values from a melting point compilation (Tetko et al.; mined from patent text by program, amines drawn as free bases though some values may be those of a salt)

// reported melting point per item

Incoming: Given the compound `COc1ccc(N2CCOCC2)c2sc(NC(=O)N(C)C3CCOCC3)nc12` , what is its reported melting point?
Outgoing: 240 to 242 °C

Incoming: GET /values?readout=melting point&item= NC(=O)CC(C(N)=O)n1cccc1 (configuration not stated)
Outgoing: 158 to 165 °C

Incoming: Quick one: melting point for `CCn1c(=S)c2[nH]c(C(C)C)nc2n(Cc2ccc(OC)c(OC3CCCC3)c2)c1=O` ?
Outgoing: 176 to 177 °C

Incoming: Please look up its melting point: `O=C(OCCN1CCOC1=O)c1ccccc1Nc1ccnc2cc(Cl)ccc12`
Outgoing: 122 to 124 °C

Incoming: So what does the record say about melting point for `Cc1ccc(S(=O)(=O)N2CC=CC2)cc1` ?
Outgoing: 123 to 124 °C

Incoming: Recorded melting point of `Cc1nc2c(N)cc(S(=O)(=O)N(C)C)cc2n1C` , please.
Outgoing: 255 to 258 °C

Incoming: Entry under review: `O=[N+]([O-])c1ccc(Oc2ccc(Oc3ccc([N+](=O)[O-])cc3)c(P(=O)(c3ccccc3)c3ccccc3)c2)cc1` . Reported melting point?
Outgoing: 239 to 242 °C

Incoming: Can you look up the measured melting point of `O=C(Nc1ccc(C[C@H](NS(=O)(=O)N2CCCCC2)C(=O)O)cc1)c1c(Cl)cncc1Cl` for me?
Outgoing: 208 °C

Incoming: melting point lookup needed for `CCCc1nc2c(N)nc3ccccc3c2n1CCOCCCCl` , thanks.
Outgoing: 131 to 132 °C

Incoming: Consider the compound shown here: Cc1oc(-c2ccccc2)nc1C(O)COc1ccc(CCCC2OC(=O)NC2=O)cc1 (configuration not stated) What is its recorded melting point?
Outgoing: 146 to 147 °C

Incoming: Form field: reported melting point of `CCOC(=O)c1sc(SC)c(C(=O)CC)c1C`
Outgoing: 114 to 115 °C

###

Each item that follows carries a reported melting point.

Reference set (8 entries):
Cn1nc(-c2ccccc2)c(CC(=O)O)c1-c1ccccc1	170 to 172 °C
Cc1nnc(-c2ccc3occ(-c4ccccc4)c3c2)o1	117 to 118 °C
CC(C)c1nc(-c2ccccc2)nc(-c2ccc(F)cc2)c1C=O	127 to 129 °C
COC(=O)C1Cc2c([nH]c3ccccc23)C(c2ccccc2Br)N1 (stereo not given)	105 to 106 °C
COc1ccc2c(c1)C(NCc1cc(OC)c(OC)cc1N)CCO2 (stereo not given)	90 to 92 °C
OCCC(=C(c1ccccc1)c1ccc(OCCBr)cc1)c1ccccc1	133 to 137 °C
Cc1ccccc1Cc1c(C)c(NC(=O)CC(C)(C)C)c(C)c2c1OC(C)(C)C2	175 to 176 °C
COc1cccc(C(=O)NCc2cccc3c2CN(C2CCC(=O)NC2=O)C3=O)c1 (stereo not given)	244 to 246 °C

Incoming: Which melting point value belongs to `CCc1[nH]c(=O)[nH]c(=O)c1N1CCN(Cc2ccccc2)CC1` ?
Outgoing: 255 to 256 °C

Incoming: melting point for `Cc1noc(NC(=O)N2CCN(c3nc(-c4ccc(F)cc4F)cs3)CC2)c1C` ?
Outgoing: 166 to 167 °C

Incoming: // returns reported melting point for input COc1ccccc1C1(O[Si](C)(C)C)C(=O)Nc2cc(C)c(Cl)cc21 (stereo not given)
Outgoing: 227 °C

Incoming: Looking for the measured melting point of CC1=C(C(=O)NC(C)(C)C)C(c2ccccc2Cl)C(C(=O)O)=C(COCCn2c(C)nc3ccccc32)N1 (stereo not given) , can you help?
Outgoing: 187 to 188 °C

Incoming: What value of melting point has been recorded for this entry: `CC(C)(C)c1ccc(C2(N=C=O)CCC3(CC2)OCCO3)cc1`
Outgoing: 103 to 106 °C

Incoming: Looking for the measured melting point of `C=Cc1ccc(C(=O)Oc2ccc(NS(C)(=O)=O)cc2)cc1` , can you help?
Outgoing: 172 to 173 °C

Incoming: Give its melting point value. Item: `C/C=C/Cn1c(Cc2cc(C)cc(C)c2)c(CC)c(=O)[nH]c1=O`
Outgoing: 145 to 146 °C
